Measured selectivity ratio values are reported for all entries that follow.
- assay overview: in vivo
- condition summary: mouse, po
assay metric: selectivity ratio

* Cc1cc(=O)oc2c(Cl)c(OCCCCN3CCC(c4noc5cc(F)ccc45)CC3)ccc12 | 221
* O=C(CCCN1CCC(O)(c2ccc(Cl)cc2)CC1)c1ccc(F)cc1 | 1.16

* * *

- target system: Adrenergic receptor alpha-1 (Rattus norvegicus, UniProt P15823+P23944+P43140)
Measured Ki values are reported for all entries that follow.
assay metric: Ki (nM)

* Cc1c(C)c2ccc(OCCCCN3CCC(c4noc5cc(F)ccc45)CC3)cc2oc1=O | 139.2
* Cc1cc(=O)oc2cc(OCCCCN3CCC(c4noc5cc(F)ccc45)CC3)ccc12 | 15.8
* COc1ccccc1N1CCN(CCCCOc2ccc3c(C)cc(=O)oc3c2)CC1 | 6.1
* Cc1cc(=O)oc2c(C)c(OCCCCN3CCC(c4noc5cc(F)ccc45)CC3)ccc12 | 121.2
* Cc1cc(=O)oc2c(Cl)c(OCCCCN3CCC(c4noc5cc(F)ccc45)CC3)ccc12 | 2569.2

* * *

Endpoint: pKi. System: 5-hydroxytryptamine receptor 2A (Rattus norvegicus). Items follow.
Sequence (P14842 whole entry): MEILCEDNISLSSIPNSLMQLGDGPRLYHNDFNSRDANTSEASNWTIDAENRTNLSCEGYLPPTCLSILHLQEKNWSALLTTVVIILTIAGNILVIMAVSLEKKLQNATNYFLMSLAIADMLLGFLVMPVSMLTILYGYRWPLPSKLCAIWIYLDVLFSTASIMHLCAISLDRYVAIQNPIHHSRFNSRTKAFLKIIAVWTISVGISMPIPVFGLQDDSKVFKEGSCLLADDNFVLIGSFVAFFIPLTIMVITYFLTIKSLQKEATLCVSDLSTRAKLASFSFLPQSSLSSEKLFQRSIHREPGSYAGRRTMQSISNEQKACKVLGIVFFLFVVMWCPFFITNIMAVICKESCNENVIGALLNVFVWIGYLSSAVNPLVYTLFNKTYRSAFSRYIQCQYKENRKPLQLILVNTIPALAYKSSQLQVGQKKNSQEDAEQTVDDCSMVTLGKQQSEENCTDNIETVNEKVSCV
pKi: −log10 of the molar value.
assay metric: pKi

• Cc1cc(=O)oc2cc(OCCCCN3CCC(c4nc5ccccc5s4)CC3)ccc12 = 6.67
• Cc1cc(=O)oc2cc(OCCCCN3CCC(c4noc5cc(F)ccc45)CC3)c(Cl)cc12 = 7.97
• COc1ccccc1N1CCN(CCCCOc2ccc3c(C(F)(F)F)cc(=O)oc3c2)CC1 = 6.09

* * *

Measured pKi values are reported for all entries that follow.
Target protein (sequence): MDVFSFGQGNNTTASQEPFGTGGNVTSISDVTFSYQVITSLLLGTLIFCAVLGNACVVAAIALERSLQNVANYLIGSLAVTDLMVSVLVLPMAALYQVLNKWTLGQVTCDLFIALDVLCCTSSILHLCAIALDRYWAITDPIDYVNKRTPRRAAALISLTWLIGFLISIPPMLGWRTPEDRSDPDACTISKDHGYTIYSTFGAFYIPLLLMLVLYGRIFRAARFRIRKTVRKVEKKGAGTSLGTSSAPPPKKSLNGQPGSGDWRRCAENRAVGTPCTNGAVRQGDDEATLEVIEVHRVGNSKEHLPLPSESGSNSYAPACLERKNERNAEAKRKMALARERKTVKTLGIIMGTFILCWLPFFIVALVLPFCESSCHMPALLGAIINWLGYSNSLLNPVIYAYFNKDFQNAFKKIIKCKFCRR
pKi: −log10 of the molar value.
assay metric: pKi

* COc1ccccc1N1CCN(CCCCOc2ccc3c(C)cc(=O)oc3c2Cl)CC1 | 6.82
* Cc1cc(=O)oc2cc(OCCCCN3CCN(c4nsc5ccccc45)CC3)ccc12 | 6.95

* * *

- assay overview: AUC (0 to infinity) in rat at 12 mg/kg, po by HPLC-MS analysis
- Assay type: ADME, organism-based
- Set-up: time infinity, dose 12 mg/kg, route oral
- condition summary: plasma
assay metric: AUC(0-inf) (ng·h/mL)

- Cc1cc(=O)oc2c(Cl)c(OCCCCN3CCC(c4noc5cc(F)ccc45)CC3)ccc12: 703

* * *

Endpoint: Ki. System: D(2) dopamine receptor (Rattus norvegicus, UniProt P61169). Items follow.
Sequence (P61169 whole entry): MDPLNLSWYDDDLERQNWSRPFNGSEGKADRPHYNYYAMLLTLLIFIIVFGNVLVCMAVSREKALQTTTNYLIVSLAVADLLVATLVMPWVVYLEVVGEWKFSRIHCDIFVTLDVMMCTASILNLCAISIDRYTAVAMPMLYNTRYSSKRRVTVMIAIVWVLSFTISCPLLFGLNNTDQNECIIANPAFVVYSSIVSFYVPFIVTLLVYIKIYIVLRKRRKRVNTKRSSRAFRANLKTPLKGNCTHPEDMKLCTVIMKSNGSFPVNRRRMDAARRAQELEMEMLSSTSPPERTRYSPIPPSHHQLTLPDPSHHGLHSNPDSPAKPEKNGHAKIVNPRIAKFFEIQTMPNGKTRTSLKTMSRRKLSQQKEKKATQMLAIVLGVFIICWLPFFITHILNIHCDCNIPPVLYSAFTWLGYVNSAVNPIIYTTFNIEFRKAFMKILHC
assay metric: Ki

• Cc1cc(=O)oc2c(Cl)c(OCCCCN3CCC(c4noc5cc(F)ccc45)CC3)ccc12 = 2.6 nM
• O=c1cc(-c2ccc(F)cc2)c2ccc(OCCCCN3CCC(c4noc5cc(F)ccc45)CC3)cc2o1 = 632 nM
• COc1cccc(-c2cc(=O)oc3cc(OCCCCN4CCC(c5noc6cc(F)ccc56)CC4)ccc23)c1 = 787 nM
• O=c1cc(-c2ccccc2)c2ccc(OCCCCN3CCC(c4noc5cc(F)ccc45)CC3)cc2o1 = 14.8 nM
• Cc1cc(=O)oc2cc(OCCCCN3CCN(c4nsc5ccccc45)CC3)ccc12 = 176 nM
• COc1ccccc1N1CCN(CCCCOc2ccc3c(C(F)(F)F)cc(=O)oc3c2)CC1 = > 10000 nM
• COc1ccccc1N1CCN(CCCCOc2ccc3c(C)c(C)c(=O)oc3c2)CC1 = > 10000 nM
• COc1ccccc1N1CCN(CCCCOc2ccc3c(CO)cc(=O)oc3c2)CC1 = > 10000 nM
• Cc1cccc(N2CCN(CCCCOc3ccc4c(C)cc(=O)oc4c3)CC2)c1C = 1390 nM
• CC(C)c1cc(=O)oc2cc(OCCCCN3CCC(c4noc5cc(F)ccc45)CC3)ccc12 = 2350 nM
• Cc1cc(=O)oc2cc(OCCCCN3CCC(C(=O)c4ccc(F)cc4)CC3)ccc12 = 182 nM
• COc1ccccc1N1CCN(CCCCOc2ccc3c(-c4ccccc4)cc(=O)oc3c2)CC1 = > 10000 nM
• CCCc1cc(=O)oc2cc(OCCCCN3CCC(c4noc5cc(F)ccc45)CC3)ccc12 = 3.9 nM
• Cc1cc(=O)oc2cc(OCCCCN3CCN(c4cccc(C(F)(F)F)c4)CC3)ccc12 = 143 nM
• O=c1ccc2ccc(OCCCCN3CCC(c4noc5cc(F)ccc45)CC3)cc2o1 = 44.9 nM
• O=c1cc(-c2cccs2)c2ccc(OCCCCN3CCC(c4noc5cc(F)ccc45)CC3)cc2o1 = 2350 nM
• CCc1cc(=O)oc2cc(OCCCCN3CCC(c4noc5cc(F)ccc45)CC3)ccc12 = 1930 nM
• COc1ccc(N2CCN(CCCCOc3ccc4c(C)cc(=O)oc4c3)CC2)cc1 = 412 nM
• O=c1cc(CO)c2ccc(OCCCCN3CCC(c4noc5cc(F)ccc45)CC3)cc2o1 = > 10000 nM
• COc1ccccc1N1CCN(CCCCOc2ccc3c(C)cc(=O)oc3c2Cl)CC1 = 119 nM
• O=c1cc(C2CC2)c2ccc(OCCCCN3CCC(c4noc5cc(F)ccc45)CC3)cc2o1 = > 10000 nM
